The reported numbers originate from paper PMC5570060.

Reported pKd is given for each of the following binders.
# measured-on: T1, Brr2^C-Sec63 (human, UniProt O75643 1840-2136)
# T1 sequence (looked up): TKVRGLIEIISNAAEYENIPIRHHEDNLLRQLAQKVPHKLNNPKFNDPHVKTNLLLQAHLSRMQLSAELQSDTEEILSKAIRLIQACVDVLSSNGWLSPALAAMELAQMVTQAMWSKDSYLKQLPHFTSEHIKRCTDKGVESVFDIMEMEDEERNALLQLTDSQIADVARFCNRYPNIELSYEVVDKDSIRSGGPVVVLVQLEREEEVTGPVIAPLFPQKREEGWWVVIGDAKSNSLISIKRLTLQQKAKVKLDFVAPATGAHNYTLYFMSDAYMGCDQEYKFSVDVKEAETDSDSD
# method-description: ITC
Please report pKd as the negative decimal logarithm of the molar concentration, giving only the number.

Reference set (5 entries):
binder: FBP21^116–376 (domain or fragment, UniProt O75554 116-376, looked up) KKKRKKDPSKGRWVEGITSEGYHYYYDLISGASQWEKPEGFQGDLKKTAVKTVWVEGLSEDGFTYYYNTETGESRWEKPDDFIPHTSDLPSSKVNENSLGTLDESKSSDSHSDSDGEQEAEEGGVSTETEKPKIKFKEKNKNSDGGSDPETQKEKSIQKQNSLGSNEEKSKTLKKSNPYGEWQEIKQEVESHEEVDLELPSTENEYVSTSEADGGGEPKVVFKEKTVTSLGVMADGVAPVFKKRRTENGKSRNLRQRGDDQ
observed-value: 6.56
//
binder: GKKRR [positively charged control peptide GKKRR]
observed-value: 4.43
//
binder: FBP21^276–376 (domain or fragment, UniProt O75554 276-376, looked up) NSLGSNEEKSKTLKKSNPYGEWQEIKQEVESHEEVDLELPSTENEYVSTSEADGGGEPKVVFKEKTVTSLGVMADGVAPVFKKRRTENGKSRNLRQRGDDQ
observed-value: 6.53
//
binder: FBP21^200–376 K357E/R359E (domain or fragment, UniProt O75554 200-376, looked up) HTSDLPSSKVNENSLGTLDESKSSDSHSDSDGEQEAEEGGVSTETEKPKIKFKEKNKNSDGGSDPETQKEKSIQKQNSLGSNEEKSKTLKKSNPYGEWQEIKQEVESHEEVDLELPSTENEYVSTSEADGGGEPKVVFKEKTVTSLGVMADGVAPVFEKERTENGKSRNLRQRGDDQ
observed-value: 4.56
//
binder: FBP21^326–376 (domain or fragment, UniProt O75554 326-376, looked up) EADGGGEPKVVFKEKTVTSLGVMADGVAPVFKKRRTENGKSRNLRQRGDDQ
observed-value: 6.96

Return pKd (reported value) for this binder: GVMADGVAPVFKKRRTENGK [peptide 57]
4.56

Return pKd (reported value) for this binder: FKKRR [core binding motif of peptide 57, ^356FKKRR^360]
4.70

Return pKd (reported value) for this binder: FBP21^200–376 (domain or fragment, UniProt O75554 200-376, looked up) HTSDLPSSKVNENSLGTLDESKSSDSHSDSDGEQEAEEGGVSTETEKPKIKFKEKNKNSDGGSDPETQKEKSIQKQNSLGSNEEKSKTLKKSNPYGEWQEIKQEVESHEEVDLELPSTENEYVSTSEADGGGEPKVVFKEKTVTSLGVMADGVAPVFKKRRTENGKSRNLRQRGDDQ
6.90

Return pKd (reported value) for this binder: FBP21^200–376 K358A/R360A (domain or fragment, UniProt O75554 200-376, looked up) HTSDLPSSKVNENSLGTLDESKSSDSHSDSDGEQEAEEGGVSTETEKPKIKFKEKNKNSDGGSDPETQKEKSIQKQNSLGSNEEKSKTLKKSNPYGEWQEIKQEVESHEEVDLELPSTENEYVSTSEADGGGEPKVVFKEKTVTSLGVMADGVAPVFKARATENGKSRNLRQRGDDQ
5.69

Return pKd (reported value) for this binder: KRFKR [positively charged control peptide KRFKR]
4.56
